tested on: Coptotermes formosanus Shiraki; experiment: Test Example 2: secondary transmission treatment effect; assay type: in vivo; conditions: after 3 days, Table 5, dicloromezotiaz 0.023%, fipronil 0.03%, imidacloprid 0.10%, chlorantraniliprole 0.05% solution in soil
# maps each entry to its Abnormal or dead termite rate (%)

Compound	Readout	Measured value
O=[N+]([O-])NC1=NCCN1Cc1ccc(Cl)nc1	Abnormal or dead termite rate (%)	1.1%
Cc1cccn2c(=O)c(-c3cc(Cl)cc(Cl)c3)c([O-])[n+](Cc3cnc(Cl)s3)c12	Abnormal or dead termite rate (%)	83%
N#Cc1nn(-c2c(Cl)cc(C(F)(F)F)cc2Cl)c(N)c1[S+]([O-])C(F)(F)F (stereo not shown)	Abnormal or dead termite rate (%)	0%

Now for a further compound.
Req: Record CNC(=O)c1cc(Cl)cc(C)c1NC(=O)c1cc(Br)nn1-c1ncccc1Cl : what is its Abnormal or dead termite rate (%) with Coptotermes formosanus Shiraki?
Resp: 2.2%

----------
system: Coptotermes formosanus Shiraki; assay: Test Example 2: secondary transmission treatment effect; format: in vivo; conditions: after 21 days, Table 6, dicloromezotiaz 0.023%, chlorfenapyr 0.11%, clothianidin 0.05%, dinotefuran 0.20%, thiamethoxam 0.10%, broflanilide 0.03% solution in soil
Readout: Abnormal or dead termite rate (%)
Record the result as number plus unit.

Examples with answers:
Compound	Abnormal or dead termite rate (%)
CN/C(=N/CC1CCOC1)N[N+](=O)[O-] (stereo not drawn) [Dinotefuran]	22%
CN(C(=O)c1ccccc1)c1cccc(C(=O)Nc2c(Br)cc(C(F)(C(F)(F)F)C(F)(F)F)cc2C(F)(F)F)c1F [Broflanilide]	6.7%
Cc1cccn2c(=O)c(-c3cc(Cl)cc(Cl)c3)c([O-])[n+](Cc3cnc(Cl)s3)c12 [Dicloromezotiaz, dicloromezotiaz]	84%
CN1COCN(Cc2cnc(Cl)s2)/C1=N\[N+](=O)[O-] [Thiamethoxam]	4.4%
CCOCn1c(-c2ccc(Cl)cc2)c(C#N)c(Br)c1C(F)(F)F [Chlorfenapyr]	31%

Req: Item CN/C(=N\[N+](=O)[O-])NCc1cnc(Cl)s1 [Clothianidin] has what recorded Abnormal or dead termite rate (%)?
Resp: 4.4%

----------
tested on: Coptotermes formosanus Shiraki; test: Test Example 2: secondary transmission treatment effect; type: in vivo; settings: after 7 days, Table 6, dicloromezotiaz 0.023%, chlorfenapyr 0.11%, clothianidin 0.05%, dinotefuran 0.20%, thiamethoxam 0.10%, broflanilide 0.03% solution in soil
Readout: Abnormal or dead termite rate (%)
Numeric only. Scale: %

Compound	Measured value
CCOCn1c(-c2ccc(Cl)cc2)c(C#N)c(Br)c1C(F)(F)F	3.3
CN1COCN(Cc2cnc(Cl)s2)/C1=N\[N+](=O)[O-]	3.3
CN/C(=N/CC1CCOC1)N[N+](=O)[O-] (stereo not drawn)	16
Cc1cccn2c(=O)c(-c3cc(Cl)cc(Cl)c3)c([O-])[n+](Cc3cnc(Cl)s3)c12	88

Req: Item CN/C(=N\[N+](=O)[O-])NCc1cnc(Cl)s1 has what recorded Abnormal or dead termite rate (%)?
Resp: 3.3

Req: Item CN(C(=O)c1ccccc1)c1cccc(C(=O)Nc2c(Br)cc(C(F)(C(F)(F)F)C(F)(F)F)cc2C(F)(F)F)c1F [Broflanilide] has what recorded Abnormal or dead termite rate (%)?
Resp: 3.3
